- Test system: Acinetobacter calcoaceticus, 8333
- assay comment: MIC, agar dilution
- Type: cell-based
- test conditions: Acinetobacter calcoaceticus, 8333, 18 h, K-10 agar, 10^4 CFU, 37°C, read-out: M.I.C.
Where a name gives a salt, the structure may show the parent alone.
metric name: MIC (µg/mL)
Give bare numbers, in µg/mL.

[[record]]
compound = "CC1C(NC(=O)C(NC(=O)N2CCN(N)C(=O)C2=O)c2ccccc2)C(=O)N1S(=O)(=O)O (stereo not drawn) [Example 32, potassium salt]"
metric_name = "MIC"
observed_result = 50


Query: Look up and state reported MIC for C[C@@H]1[C@H](NC(=O)[C@H](NC(=O)N2CCN(N=Cc3ccco3)C2=O)c2ccccc2)C(=O)N1S(=O)(=O)O (relative stereo) [Example 21, potassium salt]
Reply: 50

----------
- Test system: Acinetobacter calcoaceticus, 8333
- assay comment: MIC, agar dilution
- Format: cell-based
- test conditions: Acinetobacter calcoaceticus, 8333, 18 h, K-10 agar, 10^4 CFU, 37°C, read-out: M.I.C.
Counter-ions that a name gives are not always drawn.
Provide the recorded MIC for the entries that follow.

Study these solved cases before continuing.
[[record]]
compound = "CON=C(C(=O)NC1C(=O)N(S(=O)(=O)O)C1C)c1csc(N)n1 (centres unmarked) [Example 5, potassium salt]"
metric_name = "MIC"
observed_result = "12.5 µg/mL"

[[record]]
compound = "C[C@H]1[C@H](NC(=O)Cc2ccccc2)C(=O)N1S(=O)(=O)O [Example 3, potassium salt]"
metric_name = "MIC"
observed_result = "> 100 µg/mL"

[[record]]
compound = "CCN1CCN(C(=O)NC(C(=O)NC2C(=O)N(S(=O)(=O)O)C2C)c2ccccc2)C(=O)C1=O (centres unmarked) [Example 12, potassium salt]"
metric_name = "MIC"
observed_result = "12.5 µg/mL"

[[record]]
compound = "C[C@H]1[C@H](NC(=O)/C(=N\\OCC(=O)O)c2csc(N)n2)C(=O)N1S(=O)(=O)O [Example 31, dipotassium salt]"
metric_name = "MIC"
observed_result = "100 µg/mL"

[[record]]
compound = "C[C@@H]1[C@H](NC(=O)[C@H](NC(=O)N2CCN(NC(=O)OCc3ccccc3)C(=O)C2=O)c2ccccc2)C(=O)N1S(=O)(=O)O (relative stereo) [Example 20, potassium salt]"
metric_name = "MIC"
observed_result = "50 µg/mL"


Value sought for every listed compound: MIC.
1. CC1C(NC(=O)OCc2ccccc2)C(=O)N1S(=O)(=O)O (racemic) [Example 1, potassium salt]
2. CC1C(NC(=O)C(=NO)c2csc(N)n2)C(=O)N1S(=O)(=O)O (centres unmarked) [Example 13, potassium salt]
3. C[C@H]1[C@H](NC(=O)C(=O)c2csc(N)n2)C(=O)N1S(=O)(=O)O [Example 27, potassium salt]
4. CO/N=C(\C(=O)NC1C(=O)N(S(=O)(=O)O)C1(C)C)c1csc(N)n1 (racemic) [Example 25, potassium salt]
5. CC1C(NC(=O)C(NC(=O)N2CCN(N=Cc3ccco3)C2=O)c2ccccc2)C(=O)N1S(=O)(=O)O (centres unmarked) [Example 11, potassium salt]

Reply:
["> 100 µg/mL", "12.5 µg/mL", "> 100 µg/mL", "> 100 µg/mL", "12.5 µg/mL"]

Value sought for every listed compound: MIC.
1. CC1C(NC(=O)C(NC(=O)C(N)=O)c2cccs2)C(=O)N1S(=O)(=O)O (racemic) [Example 14, potassium salt]
2. COC1(NC(=O)Cc2ccccc2)C(=O)N(S(=O)(=O)O)C1C (centres unmarked) [Example 29, potassium salt]
3. CON=C(C(=O)NC1C(=O)N(S(=O)(=O)O)C1C)c1csc(N)n1 (racemic) [Example 7, potassium salt]
4. C[C@H]1[C@H](NC(=O)/C(=N\OC(C)(C)C(=O)OCc2ccc([N+](=O)[O-])cc2)c2csc(N)n2)C(=O)N1S(=O)(=O)O [Example 15, potassium salt]

Reply:
1. 100 µg/mL
2. > 100 µg/mL
3. 50 µg/mL
4. > 100 µg/mL

----------
Here we list compounds with their recorded MIC when tested on Escherichia coli, 10857.
Counter-ions that a name gives are not always drawn.

[[record]]
compound = "COC1(NC(=O)Cc2ccccc2)C(=O)N(S(=O)(=O)O)C1C (centres unmarked) [Example 29, potassium salt]"
observed_result = "> 100 µg/mL"

[[record]]
compound = "CON=C(C(=O)NC1C(=O)N(S(=O)(=O)O)C1C)c1csc(N)n1 (racemic) [Example 7, potassium salt]"
observed_result = "< 0.05 µg/mL"

[[record]]
compound = "C[C@H]1[C@H](NC(=O)OCc2ccccc2)C(=O)N1S(=O)(=O)O [Example 2, potassium salt]"
observed_result = "> 100 µg/mL"

[[record]]
compound = "C[C@@H]1[C@H](NC(=O)[C@H](NC(=O)N2CCN(NC(=O)OCc3ccccc3)C(=O)C2=O)c2ccccc2)C(=O)N1S(=O)(=O)O (relative stereo) [Example 20, potassium salt]"
observed_result = "< 0.05 µg/mL"


Now take the following compound into account.
Query: Look up and state reported MIC for CC1C(NC(=O)OCc2ccccc2)C(=O)N1S(=O)(=O)O (racemic) [Example 1, potassium salt]
Reply: > 100 µg/mL

----------
- System: Escherichia coli, 10909
Where a name gives a salt, the structure may show the parent alone.
Provide the recorded MIC for the entries that follow.

[[record]]
molecule = "CC1C(NC(=O)OCc2ccccc2)C(=O)N1S(=O)(=O)O (racemic) [Example 1, potassium salt]"
metric_name = "MIC"
observed_result = "> 100 µg/mL"


Value sought for every listed molecule: MIC.
1. CC1C(NC(=O)C(=NOC(C)(C)C(=O)O)c2csc(N)n2)C(=O)N1S(=O)(=O)O (stereo not shown) [Example 6, dipotassium salt]
2. CON=C(C(=O)NC1C(=O)N(S(=O)(=O)O)C1C)c1csc(N)n1 (stereo not shown) [Example 5, potassium salt]
3. C[C@@H]1[C@H](NC(=O)/C(=N\OC(C)(C)C(=O)O)c2csc(N)n2)C(=O)N1S(=O)(=O)O [Example 16]

Reply:
1. < 0.05 µg/mL
2. < 0.05 µg/mL
3. < 0.05 µg/mL

Hello, the source for this data is patent EP0187355A1, in case you need it.
